These measurements were taken from paper PMC7138916.

// reported efflux ratio at 2 h, 1 μmol/L per item
subject.of.test: human P-gp (MDR1) (Homo sapiens)
Sequence (P08183 whole entry): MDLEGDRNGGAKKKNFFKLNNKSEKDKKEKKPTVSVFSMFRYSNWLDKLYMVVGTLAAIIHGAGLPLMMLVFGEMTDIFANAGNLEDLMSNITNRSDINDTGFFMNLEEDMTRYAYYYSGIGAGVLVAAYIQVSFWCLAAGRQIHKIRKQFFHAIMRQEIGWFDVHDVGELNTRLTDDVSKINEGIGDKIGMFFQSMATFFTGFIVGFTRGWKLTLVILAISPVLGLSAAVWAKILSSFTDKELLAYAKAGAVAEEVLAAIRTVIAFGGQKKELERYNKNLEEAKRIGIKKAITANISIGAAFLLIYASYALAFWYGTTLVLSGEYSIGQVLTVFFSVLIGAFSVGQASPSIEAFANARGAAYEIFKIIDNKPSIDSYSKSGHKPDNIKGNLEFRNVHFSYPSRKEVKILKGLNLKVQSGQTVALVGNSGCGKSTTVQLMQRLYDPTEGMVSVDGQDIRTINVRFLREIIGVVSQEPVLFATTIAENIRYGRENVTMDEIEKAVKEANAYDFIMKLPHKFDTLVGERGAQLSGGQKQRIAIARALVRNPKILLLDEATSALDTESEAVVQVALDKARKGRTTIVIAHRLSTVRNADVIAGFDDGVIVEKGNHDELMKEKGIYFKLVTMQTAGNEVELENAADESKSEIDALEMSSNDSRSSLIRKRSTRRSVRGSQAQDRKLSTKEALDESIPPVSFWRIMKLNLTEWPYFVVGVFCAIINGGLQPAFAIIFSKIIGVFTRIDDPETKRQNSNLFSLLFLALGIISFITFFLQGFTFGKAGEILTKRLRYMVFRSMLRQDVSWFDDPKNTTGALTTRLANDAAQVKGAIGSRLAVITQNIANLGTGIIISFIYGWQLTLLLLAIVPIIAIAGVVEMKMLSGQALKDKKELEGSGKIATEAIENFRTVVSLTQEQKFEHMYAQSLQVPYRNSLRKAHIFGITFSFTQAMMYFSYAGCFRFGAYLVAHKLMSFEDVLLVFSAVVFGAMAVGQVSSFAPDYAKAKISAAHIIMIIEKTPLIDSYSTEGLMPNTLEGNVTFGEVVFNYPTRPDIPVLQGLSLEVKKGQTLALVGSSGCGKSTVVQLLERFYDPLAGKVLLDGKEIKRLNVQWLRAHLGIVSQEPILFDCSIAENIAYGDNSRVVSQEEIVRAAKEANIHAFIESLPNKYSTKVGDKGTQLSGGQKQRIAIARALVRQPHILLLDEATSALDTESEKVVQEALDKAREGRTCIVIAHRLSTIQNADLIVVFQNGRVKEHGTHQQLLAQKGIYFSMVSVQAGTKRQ
measurement.description: Bidirectional permeability and efflux ratio in MDR1‐MDCK cells
Assay type: in vitro ADME
test.conditions: human, MDCK-MDR1, Efflux ratio, MDR1‐MDCK cell line, P app(B–A)/P app(A–B)

Before answering, review these 3 worked examples.
> print(dat)
                                   molecule  result
1  COc1ccc([C@@H]2Sc3ccccc3N(CCN(C)C)C(=O)[C@@H]2OC(C)=O)cc1 [Diltiazem, diltiazem]     < 2
2  CN/C(=N/CCSCc1nc[nH]c1C)NC#N [Cimetidine]     < 2
3  CN(C)CCCC1(c2ccc(F)cc2)OCc2cc(C#N)ccc21 (stereo not shown) [Citalopram, citalopram]     < 2

Pending molecule:
// sample CNS(=O)(=O)Cc1ccc2[nH]cc(CCN(C)C)c2c1 [Sumatriptan, sumatriptan] , its efflux ratio at 2 h, 1 μmol/L was 2.25

###

measurement.description: Bidirectional permeability in parental MDCK cells
Format: in vitro ADME, Canine
test.conditions: dog, MDCK
test.readout: Papp A→B at 2 h, 1 μmol/L (nm/s)

1: CC(=O)Nc1ccc(O)cc1 [Acetaminophen]
2: CN/C(=N/CCSCc1nc[nH]c1C)NC#N [Cimetidine]
Pick one: 1 or 2 . Which one has the lower reported Papp A→B at 2 h, 1 μmol/L? Selection: enter the item's label. 2
(2: 9.63 nm/s, 1: 167 nm/s)

P: COc1ccc([C@@H]2Sc3ccccc3N(CCN(C)C)C(=O)[C@@H]2OC(C)=O)cc1 [Diltiazem, diltiazem]
Q: Nc1nc2[nH]cc(CCc3ccc(C(=O)N[C@@H](CCC(=O)O)C(=O)O)cc3)c2c(=O)[nH]1 [Pemetrexed, pemetrexed]
R: CC(C)NCC(O)COc1cccc2ccccc12 (stereo not drawn) [Propranolol, propranolol]
Rank entries according to their Papp A→B at 2 h, 1 μmol/L, from the largest number down. Provide the ranking by listing each label in its place in the requested order. P, R, Q

###

measurement.description: Bidirectional permeability and efflux ratio in Caco‐2 cells
Type: in vitro ADME, human
test.conditions: human, Caco-2
test.readout: Papp A→B at 2 h, 5 μmol/L (×10⁻⁶ cm/s)

A: CC(=O)Nc1ccc(O)cc1
B: CNS(=O)(=O)Cc1ccc2[nH]cc(CCN(C)C)c2c1
Of the two listed items, A and B , which carries the larger Papp A→B at 2 h, 5 μmol/L figure? Your answer should be the label of the entry you select. A
(A: 19.6 ×10⁻⁶ cm/s, B: 0.904 ×10⁻⁶ cm/s)

###

measurement.description: Bidirectional permeability and efflux ratio in Caco‐2 cells
Assay type: in vitro ADME, human
test.conditions: human, Caco-2
test.readout: Papp B→A at 2 h, 5 μmol/L (×10⁻⁶ cm/s)

> print(dat)
                                   molecule  result.number
1  NC(=O)N1c2ccccc2C=Cc2ccccc21 [Carbamazepine, carbamazepine]             22

P: Nc1nc2[nH]cc(CCc3ccc(C(=O)N[C@@H](CCC(=O)O)C(=O)O)cc3)c2c(=O)[nH]1
Q: CN/C(=N/CCSCc1nc[nH]c1C)NC#N
Select the item whose Papp B→A at 2 h, 5 μmol/L value is smaller, choosing between P and Q . # reply format: chosen label P

###

measurement.description: Bidirectional permeability and efflux ratio in Caco‐2 cells
Type: in vitro ADME, human
test.conditions: human, Caco-2
test.readout: Papp A→B at 2 h, 5 μmol/L (nm/s)

Examples from the recorded data:
molecule	Papp A→B at 2 h, 5 μmol/L, nm/s
C[C@H]1O[C@@H](O[C@H]2[C@@H](O)C[C@H](O[C@H]3[C@@H](O)C[C@H](O[C@H]4CC[C@@]5(C)[C@H](CC[C@@H]6[C@@H]5C[C@@H](O)[C@]5(C)[C@@H](C7=CC(=O)OC7)CC[C@]65O)C4)O[C@@H]3C)O[C@@H]2C)C[C@H](O)[C@@H]1O	4.77
CN/C(=N/CCSCc1nc[nH]c1C)NC#N	7.06
Cc1cc(=O)n(-c2ccccc2)n1C [Antipyrine]	362
COc1ccc([C@@H]2Sc3ccccc3N(CCN(C)C)C(=O)[C@@H]2OC(C)=O)cc1	217
NC(=O)N1c2ccccc2C=Cc2ccccc21 [Carbamazepine, carbamazepine]	331
CC(C)NCC(O)COc1cccc2ccccc12 (centres unmarked)	212

1: CN(C)CCCC1(c2ccc(F)cc2)OCc2cc(C#N)ccc21 (centres unmarked)
2: Nc1nc2[nH]cc(CCc3ccc(C(=O)N[C@@H](CCC(=O)O)C(=O)O)cc3)c2c(=O)[nH]1
Quick one: lower Papp A→B at 2 h, 5 μmol/L, 1 or 2 ? Field: selected label. Fill in the label of the entry you choose. 2
(2: 3.92 nm/s, 1: 160 nm/s)
